Data origin, for the record: patent US20060008849A1

TEST_TARGET: human GABAA channel (UniProt P18508+P28472+P62813)
Construct: host or cells: ATCC CRL-2029 (WSS-1, HEK293-derived, by own knowledge)
Sequence (P62813 28-455): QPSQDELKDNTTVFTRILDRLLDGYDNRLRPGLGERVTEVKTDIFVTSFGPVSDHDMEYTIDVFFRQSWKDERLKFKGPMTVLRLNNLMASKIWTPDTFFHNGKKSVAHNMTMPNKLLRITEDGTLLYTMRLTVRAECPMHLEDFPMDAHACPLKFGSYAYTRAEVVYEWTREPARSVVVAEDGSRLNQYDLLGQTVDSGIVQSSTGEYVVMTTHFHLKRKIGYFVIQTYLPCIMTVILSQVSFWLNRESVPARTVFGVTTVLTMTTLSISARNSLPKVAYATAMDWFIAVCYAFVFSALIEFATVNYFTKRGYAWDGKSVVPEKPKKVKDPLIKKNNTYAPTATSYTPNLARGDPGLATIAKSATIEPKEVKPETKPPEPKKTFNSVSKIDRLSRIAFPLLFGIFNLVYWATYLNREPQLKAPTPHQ
Sequence (P28472 26-473): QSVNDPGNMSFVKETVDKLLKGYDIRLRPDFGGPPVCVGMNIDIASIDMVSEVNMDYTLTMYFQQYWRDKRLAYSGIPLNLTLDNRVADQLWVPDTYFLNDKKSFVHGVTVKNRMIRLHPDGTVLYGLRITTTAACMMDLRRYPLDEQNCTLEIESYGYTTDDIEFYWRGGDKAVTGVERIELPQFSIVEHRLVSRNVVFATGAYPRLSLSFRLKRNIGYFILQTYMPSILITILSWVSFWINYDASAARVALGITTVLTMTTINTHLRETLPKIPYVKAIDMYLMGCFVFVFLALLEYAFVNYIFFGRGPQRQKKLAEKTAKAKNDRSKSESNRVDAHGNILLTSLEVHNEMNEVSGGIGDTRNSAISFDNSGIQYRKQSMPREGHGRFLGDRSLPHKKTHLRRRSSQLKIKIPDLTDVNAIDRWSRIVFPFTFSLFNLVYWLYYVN
Sequence (P18508 39-466): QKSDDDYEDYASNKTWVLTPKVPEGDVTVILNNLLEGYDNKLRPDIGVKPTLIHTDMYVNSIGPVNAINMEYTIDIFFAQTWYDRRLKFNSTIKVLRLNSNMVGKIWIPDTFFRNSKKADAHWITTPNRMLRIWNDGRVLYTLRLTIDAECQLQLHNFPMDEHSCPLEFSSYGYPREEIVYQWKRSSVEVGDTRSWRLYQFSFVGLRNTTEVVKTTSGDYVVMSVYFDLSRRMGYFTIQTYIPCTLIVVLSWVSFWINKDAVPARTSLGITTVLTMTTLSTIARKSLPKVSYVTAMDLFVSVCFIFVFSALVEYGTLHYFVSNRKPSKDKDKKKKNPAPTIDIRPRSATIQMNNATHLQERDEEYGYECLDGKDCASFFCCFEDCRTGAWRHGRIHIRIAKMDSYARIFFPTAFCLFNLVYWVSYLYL
TEST_DESCRIPTION: Sandell-Kolthoff (SK) assay on the outwardly rectifying GABAA receptor (iodide efflux)
Assay type: cell-based
ASSAY_CONTEXT: IC50, decrease of GABAA channel conductivity, in the presence of 300 μM GABA
READOUT_NAME: IC50

**Q:** Complete the entry with IC50 for CN1CCc2cc3c(cc2[C@H]1[C@@H]1OC(=O)c2c1ccc1c2OCO1)OCO3 [Bicuculline]
**A:** ~50 µM
